Molecular target: T1, TNFR1 (Homo sapiens, UniProt P19438)
T1 chain: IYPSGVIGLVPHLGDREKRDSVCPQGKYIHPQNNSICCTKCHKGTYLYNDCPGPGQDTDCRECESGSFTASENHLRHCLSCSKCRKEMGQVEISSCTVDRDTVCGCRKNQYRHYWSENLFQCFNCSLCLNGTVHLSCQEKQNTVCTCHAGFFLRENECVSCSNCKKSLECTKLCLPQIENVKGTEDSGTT
Experiment: yeast display SC50
Overview of reported apparent Kd (screen) across a group of binders:
Please answer using a numeric value trailed by its unit.

Recorded apparent Kd (screen), per entry:
Binder	apparent Kd (screen)
R38H (designed binder) SMEEEVEKAAKEYEKKKKEAIEKHLEKLKAKDKEAAEHFLKELEEAAKEYAKDEAKTMSEEEAKRRAKKYKEKVLLSELSEEEQKEIKEAEEKLVRTILKYVEEAAK	1.4 nM
D32T (designed binder) SMEEEVEKAAKEYEKKKKEAIEKHLEKLKAKTKEAAERFLKELEEAAKEYAKDEAKTMSEEEAKRRAKKYKEKVLLSELSEEEQKEIKEAEEKLVRTILKYVEEAAK	1.4 nM
K11W (designed binder) SMEEEVEKAAWEYEKKKKEAIEKHLEKLKAKDKEAAERFLKELEEAAKEYAKDEAKTMSEEEAKRRAKKYKEKVLLSELSEEEQKEIKEAEEKLVRTILKYVEEAAK	0.79 nM

Now look at this one.
# input apparent Kd (screen) lookup needed for E42C (designed binder) SMEEEVEKAAKEYEKKKKEAIEKHLEKLKAKDKEAAERFLKCLEEAAKEYAKDEAKTMSEEEAKRRAKKYKEKVLLSELSEEEQKEIKEAEEKLVRTILKYVEEAAK , thanks.
# output 22.2 nM
